// data source = patent US10577363B2

# Target: SMYD3 (Homo sapiens (Human), UniProt Q9H7B4)
# Assay notes: SMYD3 biochemical assay (SPA, 3H-SAM methylation of MEKK2 protein substrate)
# Condition details: read-out: SMYD3 Biochem IC50 (μM)*
# Text: S-adenosylmethionine (SAM), S-adenosylhomocysteine (SAH), Tris, Tween20, dimethylsulfoxide (DMSO), bovine skin gelatin (BSG), and Tris(2-carboxyethyl)phosphine hydrochloride solution (TCEP) were purchased from Sigma-Aldrich at the highest level of purity possible. ^3H-SAM was purchase from American Radiolabeled Chemicals with a specific activity of 80 Ci/mmol. 384-well opaque white OptiPlates and SPA beads (Perkin Elmer, catalog # RPNQ0013) were purchased from PerkinElmer. […]
Parameter: IC50 (µM)
One number for each entry, in µM.

1) NCCCS(=O)(=O)N1CCC(NC(=O)c2cc(C3CC3)on2)C[C@@H]1c1ccccc1 (some centres unmarked) [compound 480]
0.0658
2) C[C@@H]1C[C@H](NC(=O)c2cc(C3CC3)on2)CCN1S(=O)(=O)c1ccc(NCCN)nc1 [compound 464]
0.0897
3) NC[C@@H](Cc1ccc(O)cc1)C(=O)N1CCC(NC(=O)c2cc(C3CC3)on2)CC1 [compound 26]
5.24
4) COCCS(=O)(=O)N1CC[C@@H](NC(=O)c2cc(C3CC3)on2)C[C@H]1C [compound 257]
9.29
5) CC[C@H]1CN(C(=O)CCCN)CC[C@@H]1NC(=O)c1cc(C2CC2)on1 [compound 300]
3.6
6) C[C@@H]1C[C@H](NC(=O)c2cc(C3CC3)on2)CCN1S(=O)(=O)c1ccc(NCCN2CCOCC2)nc1 [compound 459]
2.36

// input: 2 compounds below; output: IC50 for each
1. C[C@@H]1CC(NC(=O)c2cc(C3CC3)on2)CCN1C(=O)CC1CC2CCC(C1)N2 (some centres unmarked) [compound 129]
2. C[C@H]1CC(NC(=O)c2cc(C3CC3)on2)CCN1C(=O)C1CC2(CC(N)C2)C1 (some centres unmarked) [compound 130]

1. 0.595
2. 1.3
